System: HEK-293T
Experiment: Multiplex assay against HEK293T
Type: toxicity, cell-based
Settings: human, 12 h, 1 µM, compound concentration 1 uM, replicate 2
MEASURED QUANTITY: Population Mitochondria Different-Phenotype (%)

COMPOUND SMILES: COc1cc(Nc2nccc(-c3cnn4nc(OC)ccc34)n2)cc(C(F)(F)F)c1
VALUE: 14%
--
COMPOUND SMILES: CNC(=O)Nc1ccc2c(c1)[C@@]1(CC2)OC(=O)N(CC(=O)N(Cc2ccc(F)cc2)[C@@H](C)C(F)(F)F)C1=O
VALUE: 21%
--
COMPOUND SMILES: CC(C)c1noc(N2CCC(COc3ccc(-c4ccc(S(C)(=O)=O)cc4)nc3)CC2)n1
VALUE: 15%
--
COMPOUND SMILES: CN1CCN(Cc2ccc(Nc3ncc(Cl)c(Nc4ccccc4S(=O)(=O)N(C)C)n3)cc2)CC1
VALUE: 14%
--
COMPOUND SMILES: CCCSc1nc(N[C@@H]2C[C@H]2c2ccc(F)c(F)c2)c2nnn([C@@H]3C[C@H](OCCO)[C@@H](O)[C@H]3O)c2n1
VALUE: 21%
